These entries and their values trace back to patent US20230339970A1.

# test target: human CSNK1D (Homo sapiens, UniProt P48730)
# Sequence (P48730 whole entry): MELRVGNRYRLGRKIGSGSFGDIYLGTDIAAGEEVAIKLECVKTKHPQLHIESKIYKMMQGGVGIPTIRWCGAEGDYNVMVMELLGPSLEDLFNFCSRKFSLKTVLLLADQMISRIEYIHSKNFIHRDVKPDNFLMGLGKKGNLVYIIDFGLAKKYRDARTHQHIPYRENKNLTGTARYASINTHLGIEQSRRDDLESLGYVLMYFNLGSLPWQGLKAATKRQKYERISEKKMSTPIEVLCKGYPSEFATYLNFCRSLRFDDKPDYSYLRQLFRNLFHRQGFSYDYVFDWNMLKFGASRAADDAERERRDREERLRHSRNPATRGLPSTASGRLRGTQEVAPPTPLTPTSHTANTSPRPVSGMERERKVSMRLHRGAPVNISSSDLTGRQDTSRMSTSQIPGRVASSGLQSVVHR
# method: Whole Cell nBRET CSNK1D Binding Assay
# assay context: living CHO cells stably expressing human CSNK1D tagged with nanoluciferase; NanoBret tracer 130 nM; 2 hours at 37 C
metric: IC50 (nM)
Express the result in nM but write the number alone.

Req: // returns reported IC50 for input CC(=O)Nc1cc(-c2c(-c3ccc(F)cn3)nn3c2CC[C@H]2C[C@H]23)ccn1 (stereo in doubt) [Example 342]
Resp: 454

Req: // returns reported IC50 for input [2H]C([2H])([2H])C1(C([2H])([2H])[2H])Cn2nc(-c3ccc(F)cn3)c(-c3c(F)cnc4[nH]nc(C)c34)c2CO1 [Example 404]
Resp: 137

Req: // returns reported IC50 for input Cc1nc(-c2c(-c3ccc(F)cc3)nn3c2COC(C)(C(F)(F)F)C3)c2cn[nH]c2n1 (stereo not drawn) [Example 422]
Resp: 20

Req: // returns reported IC50 for input [2H]C([2H])([2H])[C@@]1(C(F)(F)F)Cn2nc(-c3ccc(F)cn3)c(-c3ccnc4[nH]nc(C)c34)c2CO1 (single isomer, unassigned) [Example 426]
Resp: 87

Req: // returns reported IC50 for input Cc1n[nH]c2nccc(-c3c(-c4ccc(F)cc4)nn4c3OCC3(C4)CC3(F)F)c12 (single isomer, unassigned) [Example 472]
Resp: 597

Req: // returns reported IC50 for input Cc1cc(-c2c(-c3ccc(F)cn3)nn3c2CCC2C3C2(F)F)c2cn[nH]c2n1 (racemic) [Example 59]
Resp: 82
